Provide the reported pKi of each item.
The scale used: pKi is minus the common logarithm of the concentration in molar units.

State the measured pKi (α2A-adrenoceptors (Homo sapiens, UniProt P08913)) of CC(C)(C)n1nc(C2CC2)c(CN2CCN(c3cccc4c3OCCO4)CC2)c1N [Example 24]
7.41

Recall the reported pKi of Cn1nc(C2CC2)c(CN2CCN(c3cccc4c3OCCO4)CC2)c1N [Example 25] when tested on α2A-adrenoceptors (Homo sapiens, UniProt P08913).
Sequence (P08913 whole entry): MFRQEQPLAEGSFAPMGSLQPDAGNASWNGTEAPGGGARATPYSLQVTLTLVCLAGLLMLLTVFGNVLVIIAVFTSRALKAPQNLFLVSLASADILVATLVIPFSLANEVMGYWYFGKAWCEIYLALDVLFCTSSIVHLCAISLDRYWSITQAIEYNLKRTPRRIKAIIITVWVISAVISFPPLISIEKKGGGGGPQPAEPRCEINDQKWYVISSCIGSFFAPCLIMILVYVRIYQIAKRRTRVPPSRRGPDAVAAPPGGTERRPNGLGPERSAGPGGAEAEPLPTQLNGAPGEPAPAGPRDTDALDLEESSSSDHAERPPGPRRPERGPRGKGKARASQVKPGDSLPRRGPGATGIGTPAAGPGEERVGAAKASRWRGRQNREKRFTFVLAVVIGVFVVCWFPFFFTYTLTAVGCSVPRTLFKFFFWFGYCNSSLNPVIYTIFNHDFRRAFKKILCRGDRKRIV
7.85

---

# Test system: α1-adrenoceptors
# test-method-notes: inhibition of 7-methoxy-[3H]prazosin binding to α1-adrenoceptors in vitro
# Parameters: species or system rat (male Charles River CD, whole cortical tissue)
# setup-conditions: 10^-6 M, rat whole cortex, 7-methoxy-[3H]prazosin; 30 min, 1 µM
Can you tell me % displacement at 10^-6 M, α1 for the items I'm about to list?
Entry rule: numbers only, all in %.

Answer with the recorded % displacement at 10^-6 M, α1 of C=CCn1c(-c2ccccc2)nn(CCN2CCN(c3ccccc3OC)CC2)c1=O.O=C(O)/C=C/C(=O)O only.
67

Kindly indicate its recorded % displacement at 10^-6 M, α1. Item: C=CCn1c(C)nn(CCN2CCN(c3ccccc3OC)CC2)c1=O
64

Answer with the recorded % displacement at 10^-6 M, α1 of C=CCn1c(-c2ccccc2)nn(CCCCN2CCN(c3ccccc3OC)CC2)c1=O.Cl.Cl only.
99

Determine from records and report % displacement at 10^-6 M, α1 for C=CCn1c(-c2cccs2)nn(CCN2CCN(c3ccccc3OC)CC2)c1=O
93
